test: Octanol-buffer partition coefficient, log D of the compound at pH 7.4 by shake-flask method
reported endpoint: logD
Answer as a number with no unit attached.

• O=C(O)CCC[C@@H]1c2ccccc2C[C@H]1NC(=O)c1cc2cc(F)ccc2[nH]1 = 1.95

Attention now turns to another entry.
Q: Data request, read-out logD, for `O=C(O)C[C@@H]1c2ccccc2C[C@H]1NC(=O)c1cc2cc(F)ccc2[nH]1`
A: 1.26

====

Entries annotated with measured pKa
assay: Dissociation constant, pKa of the compound by spectrophotometric titration; format: physicochemical
Please give only the number in your answer, with no unit.

Completed entries (count: 2):
* O=C(O)CCC[C@@H]1c2ccccc2C[C@H]1NC(=O)c1cc2cc(F)ccc2[nH]1 | 4.24
* CC(=O)Nc1nc(C)c(-c2cnc(F)c(NS(=O)(=O)c3sc(C)nc3C)c2)s1 | 4.71

Would you kindly look at the next entry?
Q: What does the data say about its pKa? Entry: `O=C(O)C[C@@H]1c2ccccc2C[C@H]1NC(=O)c1cc2cc(F)ccc2[nH]1`
A: 3.95
